The following compounds are shown together with reported IC50 values.
# testSystem: KRAS G12D (Homo sapiens, UniProt P01116, G12D)
# Sequence (P01116 1-169 isoform P01116-2 G12D): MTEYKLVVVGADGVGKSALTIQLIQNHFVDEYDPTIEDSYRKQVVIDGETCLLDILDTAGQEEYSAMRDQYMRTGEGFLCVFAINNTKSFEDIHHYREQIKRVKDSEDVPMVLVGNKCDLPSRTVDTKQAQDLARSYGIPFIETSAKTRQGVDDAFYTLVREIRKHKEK
# assayName: In-vitro RAS-RAF binding assay (RRB), HTRF/FRET
# Format: biochemical
# Set-up: Biotinylated KRAS protein amino acids 1-169 (produced at Erasca); made in house
# measurementContext: Table 2, average of multiple runs of each compound; read-out: Inhibition of RAS-RAF Binding (in-vitro) KRAS (G12D) IC50

compound	IC50
C[C@H](NC(=O)[C@@H]1C[C@@H](O)CN1C(=O)[C@@H](NC(=O)CCOCCCN1CCC[C@H]1COc1nc(N2CC3CCC(C2)N3)c2cc(C(F)(F)F)c(-c3ccc(F)c4sc(N)c(C#N)c34)c(F)c2n1)C(C)(C)C)c1ccc(-c2ccccc2Cl)cc1 [Example 95]	8.5 nM
C#Cc1c(F)ccc2cc(O)cc(-c3ncc4c(N5CC6CCC(C5)N6)nc(OC[C@@H]5CCCN5CCCOCCC(=O)N[C@H](C(=O)N5C[C@H](O)C[C@H]5C(=O)N[C@@H](C)c5ccc(-c6cccnc6C(F)(F)F)cc5)C(C)(C)C)nc4c3F)c12 [Example 48]	7.53 nM
CC(C)[C@@H](C(=O)N1C[C@H](O)C[C@H]1C(=O)N[C@@H](C)c1ccc(-c2c(F)cc(F)cc2F)cc1)c1cc(N2CC3(CCN(CCOc4nc(N5CC6CCC(C5)N6)c5cc(Cl)c(-c6ccc(F)c7sc(N)c(C#N)c67)c(F)c5n4)CC3)C2)no1 [Example 68]	19.3 nM
CC(C)[C@@H](C(=O)N1C[C@H](O)C[C@H]1C(=O)N[C@@H](C)c1ccc(-c2c(F)cccc2F)cc1)c1cc(N2CC3(CCN(CCOc4nc(N5CC6CCC(C5)N6)c5cc(Cl)c(-c6ccc(F)c7sc(N)c(C#N)c67)c(F)c5n4)CC3)C2)no1 [Example 70]	28.6 nM

====

# testSystem: KRAS G12D (Homo sapiens, UniProt P01116, G12D)
# assayName: In-vitro RAS-RAF binding assay (RRB), HTRF/FRET
# Type: biochemical
# Parameters: Biotinylated KRAS protein amino acids 1-169 (produced at Erasca); made in house
# measurementContext: Table 2, average of multiple runs of each compound; read-out: Inhibition of RAS-RAF Binding (in-vitro) KRAS (G12D) IC50
Param label: returns met when IC50 < 0.01 µM, returns not met otherwise, including exact equality.

compound	classAssignment
C#Cc1c(F)ccc2cc(O)cc(-c3ncc4c(N5CC6CCC(C5)N6)nc(OC[C@@H]5CCCN5CCCOCCC(=O)N[C@H](C(=O)N5C[C@H](O)C[C@H]5C(=O)N[C@@H](C)c5ccc(-c6c(Cl)ccc(Cl)c6Cl)cc5)C(C)(C)C)nc4c3F)c12	not met
C#Cc1c(F)ccc2cc(O)cc(-c3ncc4c(N5CC6CCC(C5)N6)nc(OC[C@@H]5CCCN5CCCOCCC(=O)N[C@H](C(=O)N5C[C@H](O)C[C@H]5C(=O)N[C@@H](C)c5ccc(-c6c(F)cccc6Cl)cc5)C(C)(C)C)nc4c3F)c12	met
C[C@H](NC(=O)[C@@H]1C[C@@H](O)CN1C(=O)[C@@H](NC(=O)CCCCN1CCC[C@H]1COc1nc(N2CC3CCC(C2)N3)c2cnc(-c3cc(O)cc4cccc(F)c34)c(F)c2n1)C(C)(C)C)c1ccc(-c2cccc(F)c2)cc1	met
Cc1ncsc1-c1ccc([C@H](C)NC(=O)[C@@H]2C[C@@H](O)CN2C(=O)[C@@H](NC(=O)CCOCCCN2CCC[C@H]2COc2nc(N3CC4CCC(C3)N4)c3cc(Cl)c(-c4ccc(F)c5sc(N)nc45)c(F)c3n2)C(C)(C)C)cc1	not met
Cc1ncsc1-c1ccc([C@H](C)NC(=O)[C@@H]2C[C@@H](O)CN2C(=O)[C@@H](NC(=O)CCOCCCN2CCCC2COc2nc(N3CC4CCC(C3)N4)c3cc(Cl)c(-c4ccc(F)c5sc(N)c(C#N)c45)c(F)c3n2)C(C)(C)C)cc1 (some centres unmarked)	met
CC(C)[C@@H](C(=O)N1C[C@H](O)C[C@H]1C(=O)N[C@@H](C)c1ccc(-c2c(F)cc(F)cc2F)cc1)c1cc(OCC2CCN(CCOc3nc(N4CC5CCC(C4)N5)c4cc(Cl)c(-c5ccc(F)c6sc(N)c(C#N)c56)c(F)c4n3)CC2)no1	not met
C#Cc1c(F)ccc2cc(O)cc(-c3ncc4c(N5CC6CCC(C5)N6)nc(OCCN5CCC6(C5)CN(c5cc([C@H](C(=O)N7C[C@H](O)C[C@H]7C(=O)N[C@@H](C)c7ccc(-c8c(F)cccc8F)cc7)C(C)C)on5)C6)nc4c3F)c12	not met

====

# testSystem: KRAS (WT) (Homo sapiens, UniProt P01116)
# Construct: Biotinylated KRAS protein amino acids 1-169 (produced at Erasca); made in house
# Sequence (P01116 1-169 isoform P01116-2): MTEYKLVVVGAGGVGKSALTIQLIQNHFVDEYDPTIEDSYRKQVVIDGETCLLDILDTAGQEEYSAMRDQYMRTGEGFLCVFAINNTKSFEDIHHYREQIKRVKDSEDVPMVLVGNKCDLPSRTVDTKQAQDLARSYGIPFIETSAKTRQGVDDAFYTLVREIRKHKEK
# assayName: In-vitro RAS-RAF binding assay (RRB), HTRF/FRET
# Assay type: biochemical
# measurementContext: Table 2, average of multiple runs of each compound; read-out: Inhibition of RAS-RAF Binding (in-vitro) KRAS (WT) IC50
pIC50: −log10 of the molar value.

molecule	pIC50
C#Cc1c(F)ccc2cc(O)cc(-c3ncc4c(N5CC6CCC(C5)N6)nc(OC[C@@H]5CCCN5CCCOCCC(=O)N[C@H](C(=O)N5C[C@H](O)C[C@H]5C(=O)N[C@@H](C)c5ccc(-c6cccnc6C(F)(F)F)cc5)C(C)(C)C)nc4c3F)c12 [Example 48]	7.61
C[C@H](NC(=O)[C@@H]1C[C@@H](O)CN1C(=O)[C@@H](NC(=O)CCOCCCN1CCC[C@H]1COc1nc(N2CC3CCC(C2)N3)c2cc(C(F)(F)F)c(-c3ccc(F)c4sc(N)c(C#N)c34)c(F)c2n1)C(C)(C)C)c1ccc(-c2c(F)cccc2F)cc1 (single isomer, unassigned) [Example 20]	7.57

====

# testSystem: KRAS G12D (Homo sapiens, UniProt P01116, G12D)
# assayName: In-vitro RAS-RAF binding assay (RRB), HTRF/FRET
# Format: biochemical
# Parameters: Biotinylated KRAS protein amino acids 1-169 (produced at Erasca); made in house
# measurementContext: Table 2, average of multiple runs of each compound; read-out: Inhibition of RAS-RAF Binding (in-vitro) KRAS (G12D) IC50
observationType: IC50 (nM)

compound	unitName	dataValue
C[C@H](NC(=O)[C@@H]1C[C@@H](O)CN1C(=O)[C@@H](NC(=O)CCOCCCN1CCCC1COc1nc(N2CC3CCC(C2)N3)c2cc(Cl)c(-c3ccc(F)c4sc(N)c(C#N)c34)c(F)c2n1)C(C)(C)C)c1ccc(-c2c(F)cccc2F)cc1 (stereo partly shown) [Example 12]	nM	11.2
C#Cc1c(F)ccc2cc(O)cc(-c3ncc4c(N5CC6CCC(C5)N6)nc(OC[C@@H]5CCCN5CCCOCCC(=O)N[C@H](C(=O)N5C[C@H](O)C[C@H]5C(=O)N[C@@H](C)c5ccc(-c6c(F)cccc6F)cc5)C(C)(C)C)nc4c3F)c12	nM	9.4
C#Cc1c(F)ccc2cc(O)cc(-c3ncc4c(N5CC6CCC(C5)N6)nc(OCCN5CCC(F)(COc6cc([C@H](C(=O)N7C[C@H](O)C[C@H]7C(=O)N[C@@H](C)c7ccc(-c8c(F)cccc8F)cc7)C(C)C)on6)CC5)nc4c3F)c12	nM	13.4
C#Cc1c(F)ccc2cc(O)cc(-c3ncc4c(N5CC6CCC(C5)N6)nc(OC[C@@H]5CCCN5CCCOCCC(=O)N[C@H](C(=O)N5C[C@H](O)C[C@H]5C(=O)N[C@@H](C)c5ccc(-c6cc(F)cc(F)c6F)cc5)C(C)(C)C)nc4c3F)c12	nM	9.55

====

# testSystem: KRAS G12D (Homo sapiens, UniProt P01116, G12D)
# assayName: In-vitro RAS-RAF binding assay (RRB), HTRF/FRET
# Format: biochemical
# Set-up: Biotinylated KRAS protein amino acids 1-169 (produced at Erasca); made in house
# measurementContext: Table 2, average of multiple runs of each compound; read-out: Inhibition of RAS-RAF Binding (in-vitro) KRAS (G12D) IC50
The following molecules are shown together with reported IC50 values.
observationType: IC50 (nM)

molSmiles	dataValue
Cc1cc(N)nc(-c2c(Cl)cc3c(N4CC5CCC(C4)N5)nc(OC[C@@H]4CCCN4CCCOCCC(=O)N[C@H](C(=O)N4C[C@H](O)C[C@H]4C(=O)N[C@@H](C)c4ccc(-c5scnc5C)cc4)C(C)(C)C)nc3c2F)c1C(F)(F)F	15.4
C#Cc1c(F)ccc2cc(O)cc(-c3ncc4c(N5CC6CCC(C5)N6)nc(OC[C@@H]5CCCN5CCCOCCC(=O)N[C@H](C(=O)N5C[C@H](O)C[C@H]5C(=O)N[C@@H](CO)c5ccc(-c6scnc6C)cc5)C(C)(C)C)nc4c3F)c12	9.31
C#Cc1c(F)ccc2cc(O)cc(-c3ncc4c(N5CC6CCC(C5)N6)nc(OC[C@@H]5CCCN5CCCOCCC(=O)N[C@H](C(=O)N5C[C@H](O)C[C@H]5C(=O)N[C@@H](C)c5ccc(-c6ccncc6C#N)cc5)C(C)(C)C)nc4c3F)c12	7.93
C#Cc1c(F)ccc2cc(O)cc(-c3ncc4c(N5CC6CCC(C5)N6)nc(OC[C@@H]5CCCN5CCCOCCC(=O)N[C@H](C(=O)N5C[C@H](O)C[C@H]5C(=O)N[C@@H](C)c5ccc(-c6cccc(F)c6F)cc5)C(C)(C)C)nc4c3F)c12	9.09
